Taken from patent US20170114420.

Test system: Norovirus GII.17 VLP, capsid protein VP1 (Norovirus GII.17)
measurement-notes: ELONA
cond: 1 uM aptamer, RT
experimental-readout: binding signal (T/N ratio)
Write the number in T/N ratio without appending the unit.

Please review the following examples before continuing.
AGTATACGTATTACCTGCAGCCACCAGTGTGTTGAGGTTTGAGCACACTGATAGAGTGTCACGATATCTCGGAGATCTTGC [SMV-19]	3
AGTATACGTATTACCTGCAGCCATCTGTGTGAAGACTATATGGCGCTCACATATTTCTTTCCGATATCTCGGAGATCTTGC [SMV-25]	2
AGTATACGTATTACCTGCAGCTGACCGAGTGTCTGGTCATTTTCGATGTCTGTTGTTAGGCCGATATCTCGGAGATCTTGC [SMV-26]	1.3

Next sequence, please.
Prompt: Give Norovirus GII.17 VLP, capsid protein VP1 (Norovirus GII.17) binding signal for AGTATACGTATTACCTGCAGCCCATGTTTTGTAGGTGTAATAGGTCATGTTAGGGTTTCTGCGATATCTCGGAGATCTTGC [SMV-21]
Completion: 12.2

----------
Measured binding signal of individual entries
Tested on: Norovirus GI.4 VLP, capsid protein VP1 (Norovirus GI.4)
measurement-notes: ELONA
cond: 1 uM aptamer, RT
Record the value in T/N ratio, omitting the unit from your answer.

Known results for sequences:
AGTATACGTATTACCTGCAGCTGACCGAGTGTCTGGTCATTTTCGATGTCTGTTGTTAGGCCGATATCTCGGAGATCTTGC [SMV-26]	1.1
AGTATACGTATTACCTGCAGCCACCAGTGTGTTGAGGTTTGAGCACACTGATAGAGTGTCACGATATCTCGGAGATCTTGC [SMV-19]	1.7
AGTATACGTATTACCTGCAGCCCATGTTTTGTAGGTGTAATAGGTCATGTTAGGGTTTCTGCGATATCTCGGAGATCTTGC [SMV-21]	4.3

Please find the next sequence below.
Prompt: Bench note: what binding signal did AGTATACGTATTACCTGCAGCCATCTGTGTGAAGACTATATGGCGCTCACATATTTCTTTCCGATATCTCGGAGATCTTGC [SMV-25] show?
Completion: 5.6

----------
Test system: Norovirus GII.3 VLP, capsid protein VP1 (Norovirus GII.3)
measurement-notes: ELONA
cond: 1 uM aptamer, RT
binding signal listing for selected sequences.
The figure you give is taken to be in T/N ratio; do not add the unit.

Would you please look over these solved cases?
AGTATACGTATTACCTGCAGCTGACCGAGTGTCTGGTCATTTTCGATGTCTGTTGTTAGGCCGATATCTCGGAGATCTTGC [SMV-26]	2.4
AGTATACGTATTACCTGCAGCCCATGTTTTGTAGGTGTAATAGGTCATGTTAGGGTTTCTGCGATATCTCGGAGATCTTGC [SMV-21]	11.8
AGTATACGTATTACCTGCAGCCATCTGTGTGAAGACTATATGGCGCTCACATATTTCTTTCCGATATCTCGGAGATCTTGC [SMV-25]	5.4

Prompt: // query binding signal value for entry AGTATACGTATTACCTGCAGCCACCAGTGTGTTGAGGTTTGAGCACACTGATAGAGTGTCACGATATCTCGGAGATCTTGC [SMV-19]
Completion: 1.7

----------
Test system: Norovirus GII.4 (Grimsby) VLP, capsid protein VP1 (Norovirus GII.4 Grimsby)
measurement-notes: ELONA
cond: 1 uM aptamer, RT
experimental-readout: binding signal (T/N ratio)
# output: bare number, implied unit T/N ratio

Please review the following examples before continuing.
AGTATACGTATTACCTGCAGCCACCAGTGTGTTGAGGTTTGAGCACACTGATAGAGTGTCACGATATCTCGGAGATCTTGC [SMV-19]	9.6
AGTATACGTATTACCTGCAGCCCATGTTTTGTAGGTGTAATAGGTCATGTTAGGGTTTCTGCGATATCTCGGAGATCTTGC [SMV-21]	6.4
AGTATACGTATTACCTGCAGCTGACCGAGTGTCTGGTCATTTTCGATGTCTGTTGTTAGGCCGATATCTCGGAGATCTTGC [SMV-26]	3.2

Kindly consider the entry below.
Prompt: Look up binding signal: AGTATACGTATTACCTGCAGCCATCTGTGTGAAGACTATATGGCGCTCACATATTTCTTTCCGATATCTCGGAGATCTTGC [SMV-25]
Completion: 10.4

----------
Tested on: Norovirus GII.4 (Houston) VLP, capsid protein VP1 (Norovirus GII.4 Houston)
measurement-notes: ELONA
cond: 1 uM aptamer, RT
binding signal values for the sequences below.
Numeric answer only, unit T/N ratio assumed.

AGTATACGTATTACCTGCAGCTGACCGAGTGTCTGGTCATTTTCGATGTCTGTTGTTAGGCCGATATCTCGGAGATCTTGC [SMV-26]	2.8

Prompt: API: value(readout=binding signal, system=Norovirus GII.4 (Houston) VLP, capsid protein VP1 (Norovirus GII.4 Houston)) for record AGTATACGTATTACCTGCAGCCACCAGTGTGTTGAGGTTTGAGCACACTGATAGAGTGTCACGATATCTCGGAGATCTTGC [SMV-19]
Completion: 12.5

Prompt: Query for Norovirus GII.4 (Houston) VLP, capsid protein VP1 (Norovirus GII.4 Houston): what binding signal does the record show for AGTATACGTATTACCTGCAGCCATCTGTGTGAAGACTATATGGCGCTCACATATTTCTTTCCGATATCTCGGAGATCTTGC [SMV-25] ?
Completion: 11

Prompt: Could you share what binding signal was measured for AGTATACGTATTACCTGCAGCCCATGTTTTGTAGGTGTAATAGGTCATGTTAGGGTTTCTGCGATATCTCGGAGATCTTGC [SMV-21] , tested on Norovirus GII.4 (Houston) VLP, capsid protein VP1 (Norovirus GII.4 Houston)?
Completion: 11.3
